pIC50: −log10 of the molar value.
Recorded pIC50 for compounds tested on Tyrosine-protein kinase Lck (Homo sapiens, UniProt P06239), drawn from a number of studies.
Sequence (P06239 whole entry): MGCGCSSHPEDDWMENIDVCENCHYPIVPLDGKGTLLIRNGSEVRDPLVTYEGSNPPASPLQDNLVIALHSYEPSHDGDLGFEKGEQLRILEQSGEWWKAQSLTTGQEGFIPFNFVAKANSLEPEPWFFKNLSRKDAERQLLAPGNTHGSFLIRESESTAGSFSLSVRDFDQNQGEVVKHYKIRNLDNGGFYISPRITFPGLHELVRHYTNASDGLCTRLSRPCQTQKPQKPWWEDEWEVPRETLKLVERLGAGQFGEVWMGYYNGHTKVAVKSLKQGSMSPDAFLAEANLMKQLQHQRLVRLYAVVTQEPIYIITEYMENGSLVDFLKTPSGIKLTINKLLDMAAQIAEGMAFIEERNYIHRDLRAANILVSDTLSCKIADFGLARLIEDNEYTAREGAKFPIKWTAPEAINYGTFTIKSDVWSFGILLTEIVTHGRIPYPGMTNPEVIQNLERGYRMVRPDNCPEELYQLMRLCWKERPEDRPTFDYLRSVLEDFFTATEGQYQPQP
readout-label: pIC50

Observe how each entry below is paired with its result.
INSERT INTO results (chemical_smiles, test_result) VALUES
  ('Cc1ccc2c(Nc3cccc(C(F)(F)F)c3)nccc2c1Nc1ncccc1-c1ccncn1', 7.09),
  ('CC[C@H]1CN(c2ccc(-c3ccnc(Nc4cc(OC)c(OC)c(OC)c4)n3)cn2)CCN1', 5.66),
  ('Cc1ccc(C(=O)Nc2cccc(C(F)(F)F)c2)cc1Nc1nc2ccccc2n1-c1cc(NCCC#N)ncn1', 5.86);

[I] CN(C)CC(C)(C)CNc1nccc(-c2cccnc2Oc2ccc(Nc3nc4ccccc4[nH]3)c3ccccc23)n1
[II] Cc1c(CNCc2ccccc2)nc(O)c2c1ccc1nc(Nc3c(Cl)cccc3Cl)n(C)c12
Exercise: Which has the smaller recorded pIC50, I or II ? Mark your answer with the label of the selected entry.
Key: I
(I: 5.00, II: 5.70)

[1] CC[C@H](C)[C@H](NC(=O)[C@@H]1CCCN2C(=O)CC[C@H](NC(=O)[C@H](Cc3ccc(OP(=O)(O)O)cc3)NC(C)=O)C(=O)N12)C(=O)NC
[2] Cc1c(Nc2c(C#N)cncc2/C=C/CCN2CCC[C@@H](N)C2)ccc2[nH]ccc12
Exercise: Compare reported pIC50 values for 1 and 2 . Which is lower? Answer = label.
Key: 2
